Biological target: rat brain cortical membranes ([35S]-TBPS binding)
Assay: Steroid inhibition of [35S]-TBPS binding (radioligand displacement)
Conditions: 3 nM [35S]-TBPS, in the presence of 5 μM GABA
Item-by-item account of IC50

INSERT INTO assay_data (chem_smiles, assayed_system, assay_endpoint, experimental_result) VALUES
  ('CCc1ccc(C(=O)[C@H]2CC[C@H]3[C@@H]4CC[C@H]5C[C@](C)(O)CC[C@]5(COC)[C@H]4CC[C@]23C)cc1', 'rat brain cortical membranes ([35S]-TBPS binding)', 'IC50', '> 100 nM'),
  ('C[C@@]1(O)CC[C@H]2[C@H](CC[C@@H]3[C@@H]2CC[C@]2(C)[C@@H](C(=O)c4ccc(F)cc4)CC[C@@H]32)C1', 'rat brain cortical membranes ([35S]-TBPS binding)', 'IC50', '20 to 50 nM'),
  ('C[C@@]1(O)CC[C@H]2[C@H](CC[C@@H]3[C@@H]2CC[C@]2(C)[C@@H](C(=O)c4cnn[nH]4)CC[C@@H]32)C1', 'rat brain cortical membranes ([35S]-TBPS binding)', 'IC50', '> 100 nM'),
  ('C[C@@]1(O)CC[C@H]2[C@H](CC[C@@H]3[C@@H]2CC[C@]2(C)[C@@H](C(=O)c4cc(F)cc(F)c4)CC[C@@H]32)C1', 'rat brain cortical membranes ([35S]-TBPS binding)', 'IC50', '20 to 50 nM');

Give the measured IC50 of Cc1cc(C)cc(C(=O)[C@H]2CC[C@H]3[C@@H]4CC[C@@H]5C[C@](C)(O)CC[C@@H]5[C@H]4CC[C@]23C)c1 .
< 20 nM

Would you kindly share the measured IC50 for COC[C@]12CC[C@@](C)(O)C[C@@H]1CC[C@H]1[C@@H]3CC[C@H](C(=O)c4cccc(Cl)c4)[C@@]3(C)CC[C@@H]12 ?
50 to 100 nM

Fill in the blank: the reported IC50 of C[C@@]1(O)CC[C@@]2(C)[C@H](CC[C@@H]3[C@@H]2CC[C@]2(C)[C@@H](C(=O)c4ccccc4F)CC[C@@H]32)C1 is ____.
> 100 nM

So what's the measured IC50 for this one? CCc1ccc(C(=O)[C@H]2CC[C@H]3[C@@H]4CC[C@H]5C[C@](C)(O)CC[C@]5(C)[C@H]4CC[C@]23C)cc1
> 100 nM

# IC50 lookup, item COC[C@]12CC[C@@](C)(O)C[C@@H]1CC[C@H]1[C@@H]3CC[C@H](C(=O)c4ccccn4)[C@@]3(C)CC[C@@H]12
> 100 nM

Which IC50 reading was recorded for the molecule Cn1ncc(C(=O)[C@H]2CC[C@H]3[C@@H]4CC[C@@H]5C[C@](C)(O)CC[C@@H]5[C@H]4CC[C@]23C)n1 ?
> 100 nM

What value of measured IC50 is listed for COc1ccc2cc(C(=O)[C@H]3CC[C@H]4[C@@H]5CC[C@@H]6C[C@](C)(O)CC[C@@H]6[C@H]5CC[C@]34C)ccc2c1 ?
20 to 50 nM

Need IC50 of Cc1ccc(C(=O)[C@H]2CC[C@H]3[C@@H]4CC[C@H]5C[C@](C)(O)CC[C@]5(C)[C@H]4CC[C@]23C)cc1 , thanks.
> 100 nM

Measured values drawn from patent US11945836B2 for this set.
